- assayTarget: MNK1a (Homo sapiens (Human))
- experimentSummary: MNK1 in vitro kinase assay (Assay 3), Z'-LYTE
- Assay type: biochemical
- cond: compound concentration of 1 μM, read-out: MNK1 % INH
assayReadout: inhibition at 1 µM (%)
Give bare numbers, in %.

INSERT INTO assay_data (molecule, testvalue) VALUES
  ('Cc1cc(N=S2(=O)CCCC2)cc2ncnc(Nc3cccnc3O[C@@H]3COC[C@@H]3O)c12 (racemic) [Example 2.3]', 102),
  ('Cc1cc(N=S2(=O)CCC2)cc2ncnc(Nc3ccc(F)cc3O[C@@H]3COC[C@@H]3O)c12 (single isomer, unassigned) [Example 1.36]', 98),
  ('O=S1(=Nc2cc(C(F)(F)F)c3c(Nc4ccc(F)cc4O[C@H]4COC[C@@H]4O)ncnc3c2)CCCC1', 96),
  ('O=S1(=Nc2cc(F)c3c(Nc4ccc(F)cc4O[C@H]4COC[C@@H]4O)ncnc3c2)CCCC1', 100),
  ('Cc1cc(N=S2(=O)CCCC2)cc2ncnc(Nc3cccnc3O[C@H]3COC[C@H]3O)c12 (single isomer, unassigned)', 103);

For each of the molecules below, state inhibition at 1 µM.
1. CC(=O)N1C[C@@H](O)[C@H](Oc2cc(F)ccc2Nc2ncnc3cc(N=S4(=O)CCCC4)cc(C)c23)C1
2. O=S1(=Nc2cc(Cl)c3c(Nc4ccc(F)cc4O[C@H]4COC[C@H]4O)ncnc3c2)CCCC1 (racemic) [Example 1.5]

## Result
1. 90
2. 88

* * *

- assayTarget: MNK1a (Homo sapiens (Human), UniProt Q9BUB5)
- Sequence (Q9BUB5 other isoform, or with tags, fused parts or gaps): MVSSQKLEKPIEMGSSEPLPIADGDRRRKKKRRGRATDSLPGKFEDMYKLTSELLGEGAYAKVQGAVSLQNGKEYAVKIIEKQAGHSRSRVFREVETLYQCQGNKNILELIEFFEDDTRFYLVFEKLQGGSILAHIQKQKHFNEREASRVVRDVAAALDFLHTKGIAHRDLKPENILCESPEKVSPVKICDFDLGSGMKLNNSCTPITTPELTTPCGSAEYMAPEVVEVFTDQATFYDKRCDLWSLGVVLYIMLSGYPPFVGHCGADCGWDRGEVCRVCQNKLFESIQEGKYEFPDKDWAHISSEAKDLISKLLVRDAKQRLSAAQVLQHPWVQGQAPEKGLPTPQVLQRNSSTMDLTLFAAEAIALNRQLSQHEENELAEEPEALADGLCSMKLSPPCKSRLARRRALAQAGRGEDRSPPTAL
- experimentSummary: MNK1 in vitro kinase assay (Assay 3), Z'-LYTE
- Type: biochemical
- cond: compound concentration of 1 μM, read-out: MNK1 % INH
assayReadout: inhibition at 1 µM (%)
One number for each entry, in %.

Give me inhibition at 1 µM for each of these compounds, listed below.
1. CO[C@@H]1CCC(Oc2cc(F)ccc2Nc2ncnc3cc(N=S4(=O)CCC4)cc(C)c23)CO1 (mixture of isomers)
2. Cc1cc(N=S2(=O)CCC2)cc2ncnc(Nc3ccc(F)cc3O[C@H]3COC[C@H]3O)c12 (single isomer, unassigned)

## Result
95
97

Go through the items and report each one's inhibition at 1 µM.
1. Cc1cc(N=S(C)(C)=O)cc2ncnc(Nc3ccc(F)cc3O[C@H]3CNC[C@@H]3O)c12
2. Cc1cc(N=S(C)(C)=O)cc2ncnc(Nc3ccc(Cl)cc3O[C@H]3COC[C@@H]3O)c12

## Result
84
99

Parameter requested: inhibition at 1 µM. Apply to each item below.
1. Cc1cc(N=S(C)(=O)C(C)(C)C)cc2ncnc(Nc3ccc(F)cc3O[C@H]3COC[C@@H]3O)c12 (stereo partly drawn)
2. COc1cc(N=S(C)(=O)C2CCOCC2)cc2ncnc(Nc3ccc(F)cc3O[C@H]3COC[C@H]3O)c12 (mixture of isomers)
3. CO[C@@H]1CN(C(C)=O)C[C@H]1Oc1cc(F)ccc1Nc1ncnc2cc(N=S3(=O)CCCC3)cc(C)c12
4. Cc1cc(N=S2(=O)CCC2)cc2ncnc(Nc3ccc(Cl)cc3O[C@@H]3COC[C@H]3O)c12

## Result
85
82
31
93

For every listed record, write down its inhibition at 1 µM.
1. CS(C)(=O)=Nc1cc(F)c2c(Nc3ccc(F)cc3O[C@H]3COC[C@@H]3O)ncnc2c1
2. COc1cc(N=S(C)(C)=O)cc2ncnc(Nc3ccc(F)cc3O[C@H]3COC[C@H]3OC)c12 (racemic)
3. CC(=O)N1C[C@@H](O)[C@H](Oc2cc(F)ccc2Nc2ncnc3cc(N=S(C)(C)=O)cc(C)c23)C1
4. Cc1cc(N=S2(=O)CCC2)cc2ncnc(Nc3cccnc3O[C@@H]3COC[C@H]3O)c12
5. CO[C@@H]1CNC[C@H]1Oc1cc(F)ccc1Nc1ncnc2cc(N=S(C)(C)=O)cc(C)c12

## Result
[91, 96, 74, 94, 64]

Below is a list of compounds. For each, state its recorded inhibition at 1 µM.
1. CS(C)(=O)=Nc1cc(OCCF)c2c(Nc3ccc(F)cc3O[C@H]3COC[C@@H]3O)ncnc2c1
2. COc1cc(N=S2(=O)CCCC2)cc2ncnc(Nc3cccnc3O[C@H]3COC[C@@H]3O)c12
3. COc1cc(N=S(C)(C)=O)cc2ncnc(Nc3ccc(F)cc3O[C@H]3COC[C@@H]3O)c12
4. COc1cc(N=S(C)(=O)C(C)C)cc2ncnc(Nc3ccc(F)cc3O[C@H]3COC[C@H]3O)c12 (mixture of isomers)
5. Cc1cc(N=S(C)(C)=O)cc2ncnc(Nc3cccnc3O[C@@H]3CNC[C@H]3O)c12

## Result
1. 75
2. 97
3. 102
4. 87
5. 66
